Target: His-tagged IDO1 human recombinant protein (Homo sapiens, UniProt P14902)
Construct: purchased BPS Biosciences 71182
Sequence (P14902 whole entry): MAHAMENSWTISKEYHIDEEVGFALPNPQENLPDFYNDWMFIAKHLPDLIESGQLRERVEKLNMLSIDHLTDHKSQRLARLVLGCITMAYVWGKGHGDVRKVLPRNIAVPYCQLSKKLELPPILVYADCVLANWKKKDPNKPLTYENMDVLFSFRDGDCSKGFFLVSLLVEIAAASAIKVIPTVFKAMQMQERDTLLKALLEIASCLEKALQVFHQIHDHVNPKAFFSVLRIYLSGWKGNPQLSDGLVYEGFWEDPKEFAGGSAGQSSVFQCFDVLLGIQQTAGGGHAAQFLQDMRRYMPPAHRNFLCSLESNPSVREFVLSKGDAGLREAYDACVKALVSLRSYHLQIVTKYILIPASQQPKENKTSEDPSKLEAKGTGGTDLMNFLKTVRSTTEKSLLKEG
Test: IDO1 ELISA (Affinity Assay): sandwich ELISA, biotinylated ligand immobilized on NEUTRAVIDIN plate
Assay type: binding
Conditions: Table 10; read-out: Human IDO EC50
Bridge positions count the residues as written; N and C are the ends. Square brackets hold non-standard residues; d marks the D form. Triazole bridges read from a SMILES are 1,4-linked. Peptide text beside a SMILES is read from it. * marks the point of attachment. Biotinyl(3aR,4R,6aS) = O=C1N[C@@H]2[C@@H](CS[C@@H]2CCCCC(=O)*)N1; dTrp(1-Me) = Cn1cc(C[C@@H](N)C(=O)O)c2ccccc21; Lys(N3) = [N-]=[N+]=NCCCC[C@H](N)C(=O)O; dPhe(4-F) = N[C@H](Cc1ccc(F)cc1)C(=O)O; AEEEA = NCCOCCOCCOCC(=O)O; Pra = C#CC[C@H](N)C(=O)O
observable: pEC50
Lab note: report pEC50 as minus log10 of the concentration in molar units, number only.

Example entries begin here.
# compound, measured_number
data = [
    ("NC(=O)[C@@H]1CCCCn2cc(nn2)C[C@H](NC(=O)COCCOCCOCCNC(=O)CCCC[C@H]2SC[C@H]3NC(=O)N[C@H]32)C(=O)N[C@H](CO)C(=O)N2CCC[C@@H]2C(=O)N[C@H](Cc2c[nH]c3ccccc23)C(=O)N[C@H](Cc2c[nH]c3ccccc23)C(=O)N[C@H](Cc2ccc(F)cc2)C(=O)N1 [spww(F-Phe), biotin-PEG3-Cy(spww(F-Phe))] ({Biotinyl(3aR,4R,6aS)-AEEEA}-[Pra][dS][dP][dW][dW][dPhe(4-F)][Lys(N3)]-NH2; triazole 1-7)", 7.07),
    ("Cn1cc(C[C@H]2NC(=O)[C@@H](Cc3ccccc3)NC(=O)[C@@H](CCCNC(=N)N)NC(=O)[C@@H](Cc3ccccc3)NC(=O)[C@@H](NC(=O)COCCOCCOCCNC(=O)CCCC[C@H]3SC[C@H]4NC(=O)N[C@H]43)Cc3cn(nn3)CCCC[C@@H](C(N)=O)NC(=O)[C@@H](CO)NC2=O)c2ccccc21 [frf(Me-Trp)s, biotin-PEG3-Cy(frf(Me-Trp)s)] ({Biotinyl(3aR,4R,6aS)-AEEEA}-[Pra][dF][dR][dF][dTrp(1-Me)][dS][Lys(N3)]-NH2; triazole 1-7)", 7.74),
    ("Cn1cc(C[C@H]2NC(=O)[C@@H](CO)NC(=O)[C@@H](Cc3ccc(O)cc3)NC(=O)[C@@H](CCCNC(=N)N)NC(=O)[C@@H](NC(=O)COCCOCCOCCNC(=O)CCCC[C@H]3SC[C@H]4NC(=O)N[C@H]43)Cc3cn(nn3)CCCC[C@@H](C(N)=O)NC(=O)[C@@H](CCCNC(=N)N)NC2=O)c2ccccc21 [rys(Me-Trp)r, biotin-PEG3-Cy(rys(Me-Trp)r)] ({Biotinyl(3aR,4R,6aS)-AEEEA}-[Pra][dR][dY][dS][dTrp(1-Me)][dR][Lys(N3)]-NH2; triazole 1-7)", 7.04),
    ("CC(C)C[C@H]1NC(=O)[C@@H](CC(N)=O)NC(=O)[C@@H](NC(=O)COCCOCCOCCNC(=O)CCCC[C@H]2SC[C@H]3NC(=O)N[C@H]32)Cc2cn(nn2)CCCC[C@@H](C(N)=O)NC(=O)[C@@H](Cc2ccc(F)cc2)NC(=O)[C@@H](Cc2cn(C)c3ccccc23)NC(=O)[C@@H](Cc2ccccc2)NC1=O [nlf(Me-Trp)(F-Phe), biotin-PEG3-Cy(nlf(Me-Trp)(F-Phe))] ({Biotinyl(3aR,4R,6aS)-AEEEA}-[Pra][dN][dL][dF][dTrp(1-Me)][dPhe(4-F)][Lys(N3)]-NH2; triazole 1-7)", 7.72),
]

Kindly consider the entry below.
**Q:** Tell me the measured pEC50 of CC(C)C[C@H]1NC(=O)[C@@H](CC(N)=O)NC(=O)[C@@H](NC(=O)COCCOCCOCCNC(=O)CCCC[C@H]2SC[C@H]3NC(=O)N[C@H]32)Cc2cn(nn2)CCCC[C@@H](C(N)=O)NC(=O)[C@@H](CCCNC(=N)N)NC(=O)[C@@H](Cc2cn(C)c3ccccc23)NC(=O)[C@@H](Cc2c[nH]c3ccccc23)NC1=O [nlw(Me-Trp)r, biotin-PEG3-Cy(nlw(Me-Trp)r)] ({Biotinyl(3aR,4R,6aS)-AEEEA}-[Pra][dN][dL][dW][dTrp(1-Me)][dR][Lys(N3)]-NH2; triazole 1-7) , please.
**A:** 7.29

----------
Entries and their measured pEC50 follow.
Molecular target: murine IDO1 protein (Mus musculus, UniProt P28776)
Sequence (P28776 whole entry): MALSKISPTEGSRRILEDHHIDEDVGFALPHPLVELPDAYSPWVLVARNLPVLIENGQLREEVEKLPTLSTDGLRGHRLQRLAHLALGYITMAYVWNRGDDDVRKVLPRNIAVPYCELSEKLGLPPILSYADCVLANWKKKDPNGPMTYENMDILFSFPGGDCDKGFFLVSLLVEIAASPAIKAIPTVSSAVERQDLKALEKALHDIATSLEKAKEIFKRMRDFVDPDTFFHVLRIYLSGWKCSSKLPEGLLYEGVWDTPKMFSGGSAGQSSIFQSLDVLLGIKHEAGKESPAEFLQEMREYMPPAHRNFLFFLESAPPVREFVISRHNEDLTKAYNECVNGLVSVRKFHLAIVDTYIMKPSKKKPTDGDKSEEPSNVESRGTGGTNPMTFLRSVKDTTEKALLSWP
Experiment: ELISA against murine IDO1 protein (species cross-reactivity)
Conditions: Table 10; read-out: Mouse IDO EC50
Bridge positions count the residues as written; N and C are the ends. Square brackets hold non-standard residues; d marks the D form. Triazole bridges read from a SMILES are 1,4-linked. Peptide text beside a SMILES is read from it. * marks the point of attachment. Biotinyl(3aR,4R,6aS) = O=C1N[C@@H]2[C@@H](CS[C@@H]2CCCCC(=O)*)N1; dTrp(1-Me) = Cn1cc(C[C@@H](N)C(=O)O)c2ccccc21; Lys(N3) = [N-]=[N+]=NCCCC[C@H](N)C(=O)O; dPhe(4-F) = N[C@H](Cc1ccc(F)cc1)C(=O)O; AEEEA = NCCOCCOCCOCC(=O)O; Pra = C#CC[C@H](N)C(=O)O
Lab note: report pEC50 as minus log10 of the concentration in molar units, number only.

Example entries begin here.
# compound, observable, measured_number
measured = [
    ("CC(C)C[C@H]1NC(=O)[C@@H](CC(N)=O)NC(=O)[C@@H](NC(=O)COCCOCCOCCNC(=O)CCCC[C@H]2SC[C@H]3NC(=O)N[C@H]32)Cc2cn(nn2)CCCC[C@@H](C(N)=O)NC(=O)[C@@H](Cc2ccc(F)cc2)NC(=O)[C@@H](Cc2cn(C)c3ccccc23)NC(=O)[C@@H](Cc2ccccc2)NC1=O [nlf(Me-Trp)(F-Phe), biotin-PEG3-Cy(nlf(Me-Trp)(F-Phe))] ({Biotinyl(3aR,4R,6aS)-AEEEA}-[Pra][dN][dL][dF][dTrp(1-Me)][dPhe(4-F)][Lys(N3)]-NH2; triazole 1-7)", "pEC50", 7.05),
    ("Cn1cc(C[C@H]2NC(=O)[C@@H](CO)NC(=O)[C@@H](Cc3ccc(O)cc3)NC(=O)[C@@H](CCCNC(=N)N)NC(=O)[C@@H](NC(=O)COCCOCCOCCNC(=O)CCCC[C@H]3SC[C@H]4NC(=O)N[C@H]43)Cc3cn(nn3)CCCC[C@@H](C(N)=O)NC(=O)[C@@H](CCCNC(=N)N)NC2=O)c2ccccc21 [rys(Me-Trp)r, biotin-PEG3-Cy(rys(Me-Trp)r)] ({Biotinyl(3aR,4R,6aS)-AEEEA}-[Pra][dR][dY][dS][dTrp(1-Me)][dR][Lys(N3)]-NH2; triazole 1-7)", "pEC50", 7.77),
    ("NC(=O)[C@@H]1CCCCn2cc(nn2)C[C@H](NC(=O)COCCOCCOCCNC(=O)CCCC[C@H]2SC[C@H]3NC(=O)N[C@H]32)C(=O)N[C@H](CO)C(=O)N2CCC[C@@H]2C(=O)N[C@H](Cc2c[nH]c3ccccc23)C(=O)N[C@H](Cc2c[nH]c3ccccc23)C(=O)N[C@H](Cc2ccc(F)cc2)C(=O)N1 [spww(F-Phe), biotin-PEG3-Cy(spww(F-Phe))] ({Biotinyl(3aR,4R,6aS)-AEEEA}-[Pra][dS][dP][dW][dW][dPhe(4-F)][Lys(N3)]-NH2; triazole 1-7)", "pEC50", 7.36),
    ("CC(C)C[C@H]1NC(=O)[C@@H](CC(N)=O)NC(=O)[C@@H](NC(=O)COCCOCCOCCNC(=O)CCCC[C@H]2SC[C@H]3NC(=O)N[C@H]32)Cc2cn(nn2)CCCC[C@@H](C(N)=O)NC(=O)[C@@H](CCCNC(=N)N)NC(=O)[C@@H](Cc2cn(C)c3ccccc23)NC(=O)[C@@H](Cc2c[nH]c3ccccc23)NC1=O [nlw(Me-Trp)r, biotin-PEG3-Cy(nlw(Me-Trp)r)] ({Biotinyl(3aR,4R,6aS)-AEEEA}-[Pra][dN][dL][dW][dTrp(1-Me)][dR][Lys(N3)]-NH2; triazole 1-7)", "pEC50", 7.32),
]

**Q:** Tell me the measured pEC50 of Cn1cc(C[C@H]2NC(=O)[C@@H](Cc3ccccc3)NC(=O)[C@@H](CCCNC(=N)N)NC(=O)[C@@H](Cc3ccccc3)NC(=O)[C@@H](NC(=O)COCCOCCOCCNC(=O)CCCC[C@H]3SC[C@H]4NC(=O)N[C@H]43)Cc3cn(nn3)CCCC[C@@H](C(N)=O)NC(=O)[C@@H](CO)NC2=O)c2ccccc21 [frf(Me-Trp)s, biotin-PEG3-Cy(frf(Me-Trp)s)] ({Biotinyl(3aR,4R,6aS)-AEEEA}-[Pra][dF][dR][dF][dTrp(1-Me)][dS][Lys(N3)]-NH2; triazole 1-7) , please.
**A:** 7.44
